For each of the compounds below, state its IC50.
Molecular target: AT2 receptor of angiotensin II (Oryctolagus cuniculus, UniProt G1T351)
Construct: A fresh membrane preparation obtained from rabbit's uterus is used; from tissue; host or cells: uterus membranes of estradiol-treated rabbits
Experiment: Test on the AT2 receptor of angiotensin II (displacement of 125I angiotensin II, rabbit uterus membranes)
Format: binding
Conditions: products P1 to P13; expressed in nM; read-out: On AT2 receptor IC50
Could you give me the number in nM? Just the number is fine.

Any idea what IC50 was measured for CCCCc1nc(SC)c(C(=O)O)n1Cc1ccc(-c2ccccc2S(=O)(=O)NC(=O)OCC2CC=CCC2)cc1 (stereo not shown) ? 31

Any idea what IC50 was measured for `CCCCc1nc(SC)c(C(=O)O)n1Cc1ccc(-c2ccccc2S(=O)(=O)NC(=O)NCc2ccc(OC)cc2)cc1` ? 25

Any idea what IC50 was measured for CCCCc1nc(SC)c(C(=O)O)n1Cc1ccc(-c2ccccc2S(=O)(=O)NC(=O)NCC(C)c2ccccc2)cc1 (stereo not shown) ? 11

Any idea what IC50 was measured for `CCCCc1nc(SC)c(C(=O)O)n1Cc1ccc(-c2ccccc2S(=O)(=O)NC(=O)NCc2ccc(F)cc2)cc1` ? 10

Any idea what IC50 was measured for CCCCc1nc(SC)c(C(=O)O)n1Cc1ccc(-c2ccccc2S(=O)(=O)NC(=O)NCc2ccccc2)cc1 [Example P2] ? 14

Any idea what IC50 was measured for `CCCCc1nc(SC)c(C(=O)O)n1Cc1ccc(-c2ccccc2S(=O)(=O)NC(=O)OCc2ccccc2)cc1` ? 54

Any idea what IC50 was measured for `CCCCc1nc(SC)c(C(=O)O)n1Cc1ccc(-c2ccccc2S(=O)(=O)NC(=O)OCC2CCCCC2)cc1` ? 24

Any idea what IC50 was measured for `CCCCc1nc(SC)c(C(=O)O)n1Cc1ccc(-c2ccccc2S(=O)(=O)NC(=O)NCC2CCCCC2)cc1` ? 17

Any idea what IC50 was measured for `CCCCc1nc(SC)c(C(=O)O)n1Cc1ccc(-c2ccccc2S(=O)(=O)NC(=O)OCc2ccsc2)cc1` ? 53

Any idea what IC50 was measured for `CCCCc1nc(OC)c(C=O)n1Cc1ccc(-c2ccccc2S(=O)(=O)NC(=O)OCc2ccccc2)cc1` ? 63

Any idea what IC50 was measured for `CCCCc1nc(SC)c(C(=O)O)n1Cc1ccc(-c2ccccc2S(=O)(=O)NC(=O)OCc2cccs2)cc1` ? 17

Any idea what IC50 was measured for CCCCc1nc(SC)c(C(=O)O)n1Cc1ccc(-c2ccccc2S(=O)(=O)NC(=O)NC(Cc2ccccc2)C(=O)O)cc1 (stereo not shown) ? 49

Any idea what IC50 was measured for `CCCCc1nc(SC)c(C(=O)O)n1Cc1ccc(-c2ccccc2S(=O)(=O)NC(=O)NCCCCc2ccccc2)cc1` ? 47

###

Target: AT2 receptor of angiotensin II (Oryctolagus cuniculus)
Construct: A fresh membrane preparation obtained from rabbit's uterus is used; from tissue; host or cells: uterus membranes of estradiol-treated rabbits
Sequence (G1T351 1-363): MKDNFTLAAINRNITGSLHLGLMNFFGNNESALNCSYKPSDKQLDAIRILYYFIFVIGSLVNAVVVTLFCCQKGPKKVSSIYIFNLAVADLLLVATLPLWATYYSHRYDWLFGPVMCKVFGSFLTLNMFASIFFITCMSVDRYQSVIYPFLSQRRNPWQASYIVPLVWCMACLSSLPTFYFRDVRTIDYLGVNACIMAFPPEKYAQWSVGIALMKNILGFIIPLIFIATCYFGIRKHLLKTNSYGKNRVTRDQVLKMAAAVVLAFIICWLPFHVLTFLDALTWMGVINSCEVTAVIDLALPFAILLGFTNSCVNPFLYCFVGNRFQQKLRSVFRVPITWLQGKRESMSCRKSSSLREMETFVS
Assay: Test on the AT2 receptor of angiotensin II (displacement of 125I angiotensin II, rabbit uterus membranes)
Type: binding
Conditions: rabbit uterus membrane (estradiol pre-treated), 125I angiotensin II, 25° C., 150 minutes; read-out: AT2 Receptor IC50
Where a name gives a salt, the structure may show the parent alone.
assayEndpoint: IC50 (nM)
Could you give me the number in nM? Just the number is fine.

Any idea what IC50 was measured for CCc1nc(SC)c(C(=O)O)n1Cc1ccc(-c2ccccc2S(=O)(=O)NC(=O)NCC2CCCCC2)cc1 [Example 69, (potassium salt)] ? 1.3

Any idea what IC50 was measured for `CCCc1nc(SC)c(C(=O)O)n1Cc1ccc(-c2ccccc2S(=O)(=O)NC(=O)NCC2CCCCC2)cc1` ? 2

Any idea what IC50 was measured for CCCCc1nc(SC)c(C(C)(O)C(=O)O)n1Cc1ccc(-c2ccccc2S(=O)(=O)NC(=O)NCC2CCCCC2)cc1 (stereo not shown) ? 1.9

Any idea what IC50 was measured for `CCCc1nc(SC(F)F)c(C(=O)O)n1Cc1ccc(-c2ccccc2S(=O)(=O)NC(=O)NCC2CCCCC2)cc1` ? 1.7

Any idea what IC50 was measured for CCCc1nc(SC)c(C(O)C(=O)O)n1Cc1ccc(-c2ccccc2S(=O)(=O)NC(=O)NCc2ccccc2)cc1 (stereo not shown) ? 6.5

Any idea what IC50 was measured for `CCCc1nc(SC(F)F)c(C(=O)O)n1Cc1ccc(-c2ccccc2S(=O)(=O)NC(=O)NCc2cccs2)cc1` ? 7.4

Any idea what IC50 was measured for CCCCc1nc(SC)c(C(C)(O)C(=O)O)n1Cc1ccc(-c2ccccc2S(=O)(=O)NC(=O)NCc2ccccc2)cc1 (stereo not shown) ? 1.6
